Target: apo-human transferrin (apo-hTf) (Homo sapiens, UniProt P02787)
Sequence (P02787 20-698): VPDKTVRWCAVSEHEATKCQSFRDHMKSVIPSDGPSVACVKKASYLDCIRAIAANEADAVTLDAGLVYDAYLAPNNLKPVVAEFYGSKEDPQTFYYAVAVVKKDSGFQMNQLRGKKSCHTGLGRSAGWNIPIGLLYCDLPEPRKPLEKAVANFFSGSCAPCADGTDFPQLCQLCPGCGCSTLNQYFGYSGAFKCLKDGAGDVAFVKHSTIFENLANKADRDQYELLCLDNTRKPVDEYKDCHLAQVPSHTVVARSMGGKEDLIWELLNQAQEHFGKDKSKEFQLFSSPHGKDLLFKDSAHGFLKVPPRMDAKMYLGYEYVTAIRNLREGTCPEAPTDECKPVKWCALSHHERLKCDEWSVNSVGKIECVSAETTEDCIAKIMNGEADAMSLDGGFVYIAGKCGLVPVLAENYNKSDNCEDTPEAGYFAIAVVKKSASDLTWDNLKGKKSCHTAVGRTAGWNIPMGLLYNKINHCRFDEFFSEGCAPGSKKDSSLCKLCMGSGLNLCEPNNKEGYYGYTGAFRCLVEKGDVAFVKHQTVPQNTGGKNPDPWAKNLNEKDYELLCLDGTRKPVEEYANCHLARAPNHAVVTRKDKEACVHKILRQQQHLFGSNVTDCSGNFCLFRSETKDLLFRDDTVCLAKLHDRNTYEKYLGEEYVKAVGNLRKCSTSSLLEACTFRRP
Test: Fluorescence quenching of apo-hTf
Format: binding
Conditions: 310 K, pH 7.4, modified Stern-Volmer
propertyMeasured: quenching association constant Ka (M⁻¹)
The reply should be a number in M⁻¹, with the unit left off.

// known answers, use as guide
* [Cl-].[Cl-].[Ti+4].c1cc[cH-]c1.c1cc[cH-]c1 [Cp2TiCl2, titanocene dichloride] | 3600
* [Cl][Zr+2][Cl].c1cc[cH-]c1.c1cc[cH-]c1 | 2000
* C1CCCC1.C1CCCC1.[Cl][Nb][Cl] | 485500
* [Cl-].[Cl-].[Hf+4].c1cc[cH-]c1.c1cc[cH-]c1 | 7500

Continue with the next compound.
Considering `[Cl-].[Cl-].[Mo+4].c1cc[cH-]c1.c1cc[cH-]c1` , its quenching association constant Ka with apo-human transferrin (apo-hTf) (Homo sapiens, UniProt P02787) was recorded as 12100
